TARGET ENTITY: Hepatitis C virus serine protease, NS3/NS4A (Hepatitis C virus, UniProt A3EZI9+D2K2A8, D168A)
ASSAY EXPLANATION: Inhibition of HCV genotype 1a NS3/4A protease D168A mutant using Ac-DE-Dap(QXL 520)-EE-Abu-psi-[COO]AS-C(5-FAMsp)-NH2 as substrate preincubated for 1 hr followed by substrate addition
Classes are defined on Ki with ranges low bracket (below 40 nM), middle bracket (40 nM to below 80 nM), high bracket (80 nM or more)

Qu. Kindly state the category for this compound: `COc1ccc2nc(C)c(O[C@@H]3C[C@H]4C(=O)N[C@]5(C(=O)NS(=O)(=O)C6(C)CC6)C[C@H]5/C=C\CCCCC[C@H](NC(=O)OC5CCCC5)C(=O)N4C3)nc2c1`
Ans. low bracket

More entries:
Qu. Which bin, given its Ki, does `COc1ccc2nc(Cl)c(O[C@@H]3C[C@H]4C(=O)N[C@]5(C(=O)NS(=O)(=O)C6CC6)C[C@H]5/C=C\CCCCC[C@H](NC(=O)OC5CCCC5)C(=O)N4C3)nc2c1` occupy?
Ans. low bracket

Qu. Now consider `COc1ccc2nc(C)c(O[C@@H]3C[C@H]4C(=O)N[C@]5(C(=O)NS(=O)(=O)C6CC6)C[C@H]5/C=C\CCCCC[C@H](NC(=O)OC5CCCC5)C(=O)N4C3)nc2c1` and answer again.
Ans. low bracket

Qu. Proceed to `CCc1nc2ccc(OC)cc2nc1O[C@@H]1C[C@H]2C(=O)N[C@]3(C(=O)NS(=O)(=O)C4CC4)C[C@H]3/C=C\CCCCC[C@H](NC(=O)OC3CCCC3)C(=O)N2C1`
Ans. middle bracket

Qu. Also, `CCc1nc2ccc(OC)cc2nc1O[C@@H]1C[C@H]2C(=O)N[C@]3(C(=O)NS(=O)(=O)C4(C)CC4)C[C@H]3/C=C\CCCCC[C@H](NC(=O)OC(C)(C)C)C(=O)N2C1` please.
Ans. middle bracket

Qu. Try the compound `COc1ccc2nc(C(F)(F)F)c(O[C@@H]3C[C@H]4C(=O)N[C@]5(C(=O)NS(=O)(=O)C6CC6)C[C@H]5/C=C\CCCCC[C@H](NC(=O)OC(C)(C)C)C(=O)N4C3)nc2c1`
Ans. high bracket

Qu. Follow-up entry: `CCc1nc2ccc(OC)cc2nc1O[C@@H]1C[C@H]2C(=O)N[C@]3(C(=O)NS(=O)(=O)C4CC4)C[C@H]3/C=C\CCCCC[C@H](NC(=O)OC(C)(C)C)C(=O)N2C1`
Ans. high bracket

Qu. // query: `COc1ccc2nc(C(C)C)c(O[C@@H]3C[C@H]4C(=O)N[C@]5(C(=O)NS(=O)(=O)C6CC6)C[C@H]5/C=C\CCCCC[C@H](NC(=O)OC(C)(C)C)C(=O)N4C3)nc2c1`
Ans. high bracket
